Assayed Target: TACE enzyme (Homo sapiens)
Sequence (P78536 215-824 limits assumed): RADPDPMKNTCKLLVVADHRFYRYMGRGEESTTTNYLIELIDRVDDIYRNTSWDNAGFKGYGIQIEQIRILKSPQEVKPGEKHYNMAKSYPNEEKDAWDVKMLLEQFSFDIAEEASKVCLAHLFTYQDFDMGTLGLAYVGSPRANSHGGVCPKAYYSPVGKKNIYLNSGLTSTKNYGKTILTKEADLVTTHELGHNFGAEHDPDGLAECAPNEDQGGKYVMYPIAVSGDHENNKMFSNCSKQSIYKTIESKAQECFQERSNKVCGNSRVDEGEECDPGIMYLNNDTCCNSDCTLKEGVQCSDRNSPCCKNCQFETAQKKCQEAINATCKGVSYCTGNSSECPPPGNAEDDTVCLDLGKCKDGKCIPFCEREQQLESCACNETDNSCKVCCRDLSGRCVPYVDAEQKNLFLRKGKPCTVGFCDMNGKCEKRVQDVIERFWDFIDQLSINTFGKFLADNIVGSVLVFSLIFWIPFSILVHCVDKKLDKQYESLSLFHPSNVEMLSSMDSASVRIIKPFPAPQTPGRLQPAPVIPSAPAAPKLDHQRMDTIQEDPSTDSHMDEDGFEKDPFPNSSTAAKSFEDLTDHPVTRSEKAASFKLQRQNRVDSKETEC
Procedure Details: Enzymatic test of TACE inhibition (fluorescent substrate)
Type: biochemical
Study Conditions: at 10 μM
Consider the following compounds and their measured % TACE inhibition at 10 μM readings.
Write the numeric value and append its unit.

[[record]]
compound = "CC#CCOc1ccc(C(=O)NC[C@@H](C(=O)NO)N2CCN(S(C)(=O)=O)CC2)cc1 [Example 2]"
obs_value = "100%"

[[record]]
compound = "CC#CCOc1ccc(C(=O)NC[C@@H](C(=O)NO)N2CCN(S(=O)(=O)c3ccc(C)cc3)CC2)cc1 [Example 8]"
obs_value = "100%"

[[record]]
compound = "CS(=O)(=O)N1CCN([C@@H](CNC(=O)c2ccc(OCc3ccc(F)cc3)cc2)C(=O)NO)CC1 [Example 9]"
obs_value = "98%"

[[record]]
compound = "CC#CCOc1ccc(C(=O)N(C)C[C@@H](C(=O)NO)N2CCN(S(C)(=O)=O)CC2)cc1 [Example 13]"
obs_value = "98%"

[[record]]
compound = "COc1ccc(C(=O)NC[C@@H](C(=O)NO)N2CCN(S(C)(=O)=O)CC2)cc1 [Example 4]"
obs_value = "100%"


# evaluate next
The recorded % TACE inhibition at 10 μM for entry CS(=O)(=O)N1CCN([C@@H](CNC(=O)c2ccc(OCC3CC3)cc2)C(=O)NO)CC1 [Example 5] equals 100%
